The measured values listed here are drawn from patent US20260242478A1.

Here the recorded Phage binding ELISA, Anti-PSMA Fab (SEQ ID NOs: 19, 20) signal is given for each entry.
Target: T1, Anti-PSMA Fab (SEQ ID NOs: 19, 20)
T1 construct: Biotinylated PSMA Fab captured on neutravidin coated plates in the phage ELISA; also called 006 PSMA Fab
Experiment Summary: phage ELISA; biotinylated PSMA Fab on neutravidin plate, clonal phage supernatant, anti-M13 HRP detection;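 further: wells preincubated with PSMA antigen in blocking buffer or with blocking buffer only before clonal phage were added for a short incubation, then bound phage detected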
Experimental Endpoint: Phage binding ELISA, Anti-PSMA Fab (SEQ ID NOs: 19, 20) signal

INSERT INTO results (binder, reported_measurement) VALUES
  ('FERWCIPAWMCQSD (Clonal phage of the Peptide-180 library, tested as crude supernatant; not shown: fused to the pIII filament of the bacteriophage) [Phage-2158]', 1.66),
  ('EMKWCIPDWMCAAG (Clonal phage of the Peptide-180 library, tested as crude supernatant; not shown: fused to the pIII filament of the bacteriophage) [Phage-2161]', 1.66),
  ('LDKWCTPEWMCWGI (Clonal phage of the Peptide-180 library, tested as crude supernatant; not shown: fused to the pIII filament of the bacteriophage) [Phage-2154]', 1.67),
  ('IEKWCTPAWMCYGI (Clonal phage of the Peptide-180 library, tested as crude supernatant; not shown: fused to the pIII filament of the bacteriophage) [Phage-2152]', 1.68),
  ('DVIRCTPDWMCTGF (Clonal phage of the Peptide-180 library, tested as crude supernatant; not shown: fused to the pIII filament of the bacteriophage) [Phage-2157]', 1.66),
  ('AMHWCIPKWMCETS (Clonal phage of the Peptide-180 library, tested as crude supernatant; not shown: fused to the pIII filament of the bacteriophage) [Phage-2160]', 1.66),
  ('ETKWCFPPWMCAGS (Clonal phage of the Peptide-180 library, tested as crude supernatant; not shown: fused to the pIII filament of the bacteriophage) [Phage-2159]', 1.66),
  ('IMKLCMPPWMCAAM (Clonal phage of the Peptide-180 library, tested as crude supernatant; not shown: fused to the pIII filament of the bacteriophage) [Phage-2148]', 1.68);
